Exercise: state measured EC50 for each of the binders provided.
target: T1, mucin domain-deleted Sudan GP (GPdMuc) (Sudan virus (SUDV), UniProt Q7T9D9 33-632); test: ELISA on coated GP
T1 construct: also called Sudan GPdMuc; GP(S)dMuc
Just the number in µg/mL, nothing appended.

Task: State the recorded EC50 for this entry: antibody 523S (antibody, V domains shown) VH: QVQLVQSGAELKKPGASVKVSCKASGYTFSDHYVHWVRQAPGQGLEWMGRINPNSGGTNYAQRFLGRVTMTRDASISTAYLDLSSLRSDDTAVYYCARSSSSWSGHYYYYMDVWGKGTTVTVSS VL: QSVLTQPPSVSAAPGQRVTISCSGSTSNIASNFVSWYQQLPGTAPKLLIYDNHKRPSGIPDRFSGSKSGTSATLGITGLQTGDEADYYCGTWDSSLSAGVFGGGTKVTVLG
Output: 0.378

Task: What value of measured EC50 is listed for antibody 541S (antibody, V domains shown) VH: QVQLVQSGAEVKKPGASVKVSCKASGYTFTNYAITWVRQAPGQGLEWMGWISAFNGQINYAQKFQGRVAMTTDTSTSTAYMELRSLRSDDTAVYYCARAPPMWFSGAKFDYWGQGTLVTVSS VL: QSVLTQPPSVSGTPGQRVTISCSGSSSNIGSNTVNWYQQLPGTAPKLLIYSNDQRPSGVPDRFSGSKSGTSASLAISGLRSEDEADYYCAAWDETLRRVFGGGTRLTVL ?
Output: 0.23
